Origin of values: paper PMC6791870

Molecular target: T1, PhoEF1A•GTP•PfuPelota complex (P. horikoshii | Pyrococcus furiosus, UniProt O59153 1-428; Q8U150 1-356)
T1 construct: aPelota of Pyrococcus furiosus; Complex of m2 (GTP form) and m3, titrated as a complex in fluorescence polarisation; also called aEF1A•GTP•aPelota; source: E. coli, each protein purified, then complexed with GTP
T1 sequence 1: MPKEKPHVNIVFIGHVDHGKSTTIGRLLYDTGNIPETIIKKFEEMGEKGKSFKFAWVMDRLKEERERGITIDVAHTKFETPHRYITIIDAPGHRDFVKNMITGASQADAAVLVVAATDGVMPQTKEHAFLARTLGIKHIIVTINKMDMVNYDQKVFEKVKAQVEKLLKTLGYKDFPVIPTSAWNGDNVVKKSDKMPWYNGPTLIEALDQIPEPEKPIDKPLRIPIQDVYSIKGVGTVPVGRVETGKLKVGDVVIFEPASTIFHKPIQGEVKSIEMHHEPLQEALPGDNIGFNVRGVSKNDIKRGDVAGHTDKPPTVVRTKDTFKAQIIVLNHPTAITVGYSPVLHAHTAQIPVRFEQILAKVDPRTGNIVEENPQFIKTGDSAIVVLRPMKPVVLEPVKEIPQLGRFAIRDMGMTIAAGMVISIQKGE
T1 sequence 2: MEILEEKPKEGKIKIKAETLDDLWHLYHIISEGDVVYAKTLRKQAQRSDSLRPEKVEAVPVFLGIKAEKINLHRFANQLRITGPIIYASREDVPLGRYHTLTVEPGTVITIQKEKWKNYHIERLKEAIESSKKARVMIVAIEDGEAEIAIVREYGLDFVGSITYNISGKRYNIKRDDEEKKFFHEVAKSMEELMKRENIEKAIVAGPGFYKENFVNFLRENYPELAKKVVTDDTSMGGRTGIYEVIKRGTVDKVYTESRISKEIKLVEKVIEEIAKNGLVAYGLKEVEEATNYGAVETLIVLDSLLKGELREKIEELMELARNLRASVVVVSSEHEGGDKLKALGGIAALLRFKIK
Assay: fluorescence polarisation; FITC-labelled peptide (50 nM) with 0-160 µM PhoEF1A•GTP•PfuPelota complex in FP buffer (20 mM HEPES-KOH pH 7.6, 10 mM MgCl2, 150 mM KCl, 0.1 mg/ml BSA), 25 °C; one site specific binding fit
Settings: both partners purified
Primed or numbered codes have the meaning given here. Where no end group is shown, it is not given here. FITC′ = fluorescein isothiocyanate label
measure: pKd
Interpret pKd as the negative base-10 log of the concentration measured in mol/L.

Lookup: # get_value(readout='pKd', item= {FITC′}-SEEEALAGLSALFG (C-terminal 14 residues of P. horikoshii ribosomal stalk protein aP1 (last residues L106, F107, G108); also called WT; C-terminal peptide; source: synthetic peptide (Hokkaido System Science)) [C-terminal 14-mer peptide of P. horikoshii aP1 (PhoP1C14), FITC-labelled] )
Found: 4.63
